Data origin: the supplement of paper PMC6755084

B1: F1*; the commonest letter at each place (parent)
chain: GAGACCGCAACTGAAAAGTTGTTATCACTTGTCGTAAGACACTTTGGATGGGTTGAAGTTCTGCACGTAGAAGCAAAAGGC

- Variants of: B1
- METHOD: fraction ligated after 30 min (ligated reads / total reads); higher = more ligase activity
- STATED CONDITIONS: with F1*sub RNA substrate (template-directed ligation), 42 °C
Threshold rule: fraction ligated greater than or equal to 0.8 is YES; below that, NO.

MUTATION STRING	CATEGORY LABEL
A36G T44C	YES
T25A T45A	NO
C42G G55C	NO
T30A G55C	NO
C28T A48T	NO
